Values were extracted from PubChem BioAssay AID651717.

Tested on: mESC Bmi1-luciferase reporter, firefly/renilla ratio, 24 h
Assay: compounds raising Bmi1 reporter signal – mouse embryonic stem cells, luciferase, cherry-pick, esBAF inhibitor project, dose response (AID 651717);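 also: luciferase knocked into Bmi1 locus with EF-1a renilla as cell number control; rising ratio signals esBAF inhibition which derepresses Bmi1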
Give AC40 for every item shown.

What AC40 value was documented for this compound, "Cc1csc(NC(=O)Cc2c[nH]c3ccccc23)n1" ?
10.2 µM

What AC40 value was documented for this compound, "COC(=O)c1c(-c2ccc(SC)cc2)sc2ccc(OC)cc12" ?
0.613 µM

What AC40 value was documented for this compound, C=CCN(C(=O)CC(NC(C)=O)c1ccccc1)c1nc(-c2ccc(S(C)(=O)=O)cc2)cs1 (stereo not given) ?
0.992 µM

What AC40 value was documented for this compound, "CO[C@H]1CN(C)C(=O)c2cc(NC(=O)Nc3ccc4c(c3)OCO4)ccc2OC[C@H](C)NC[C@H]1C" ?
3.29 µM

What AC40 value was documented for this compound, "C#CCSc1nnc(-c2ccc(O)cc2)o1" ?
8.15 µM

What AC40 value was documented for this compound, "c1ccc(CCNc2nc3ccccc3s2)cc1" ?
3.14 µM

What AC40 value was documented for this compound, "COc1ccc(NC(=O)CCC(=O)Nc2ccc3nc(N4CCOCC4)cc(C)c3c2)c(OC)c1" ?
6.04 µM

What AC40 value was documented for this compound, "CCC(=O)c1ccc(N2CCCC2)c(F)c1" ?
6.47 µM

What AC40 value was documented for this compound, "Cc1nc(-c2ccccc2)sc1-c1nnc(C2CC2)o1" ?
4.24 µM

What AC40 value was documented for this compound, "CO[C@H]1CN(C)C(=O)c2cc(NC(=O)NC(C)C)ccc2OC[C@@H](C)N(Cc2ccc(-c3ccccn3)cc2)C[C@@H]1C" ?
22.6 µM

----------
Tested on: mESC Bmi1-luciferase reporter, firefly/renilla ratio, 24 h
Test: compounds raising Bmi1 reporter signal – mouse embryonic stem cells, luciferase, cherry-pick, esBAF inhibitor project, dose response (AID 651717);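 also: luciferase knocked into Bmi1 locus with EF-1a renilla as cell number control; rising ratio signals esBAF inhibition which derepresses Bmi1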
parameter.measured: AC40

What AC40 value was documented for this compound, "COc1ccc(CCC(=O)N2CCc3ccccc32)cc1" ?
5.22 µM

What AC40 value was documented for this compound, "CO[C@@H]1CN(C)C(=O)c2cc(NC(=O)Nc3ccc4c(c3)OCO4)ccc2OC[C@H](C)NC[C@@H]1C" ?
6.97 µM

What AC40 value was documented for this compound, "C=CCNc1oc(-c2ccc(OC)cc2)nc1C#N" ?
3.54 µM

What AC40 value was documented for this compound, "O=C(Nc1cccc(F)c1)c1c(O)c2ccccc2[nH]c1=O" ?
1.29 µM

What AC40 value was documented for this compound, "COc1ccc(CNc2nc(NCc3ccc(OC)cc3)n(C(=O)c3ccccc3[N+](=O)[O-])n2)cc1" ?
18.8 µM

----------
System: mESC Bmi1-luciferase reporter, firefly/renilla ratio, 24 h
Assay: compounds raising Bmi1 reporter signal – mouse embryonic stem cells, luciferase, cherry-pick, esBAF inhibitor project, dose response (AID 651717);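 also: luciferase knocked into Bmi1 locus with EF-1a renilla as cell number control; rising ratio signals esBAF inhibition which derepresses Bmi1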
Give AC40 for every item shown.

What AC40 value was documented for this compound, "CN1CCN(C(=O)C[C@@H]2CC[C@@H]3[C@H](COC[C@@H](O)CN3C(=O)Nc3ccc4c(c3)OCO4)O2)CC1" ?
24.2 µM

What AC40 value was documented for this compound, "NC(=O)c1ccc(OCc2ccccc2)nc1" ?
5.4 µM

What AC40 value was documented for this compound, "CCSc1nnc(Nc2ccccc2)s1" ?
11.1 µM

What AC40 value was documented for this compound, "COc1ccc(OCc2cc(C(=O)N3C[C@H]4CC[C@H]3C4)no2)c(Cl)c1" ?
9.24 µM

What AC40 value was documented for this compound, N#CC(c1ccccc1O)N1N=C(c2ccccc2)CC1c1ccccc1 (stereo unspecified) ?
1.43 µM

What AC40 value was documented for this compound, "COc1cc(N=Nc2ccc(C(=O)N(C)C)cc2)c(C)cc1N" ?
8.86 µM

What AC40 value was documented for this compound, "COc1ccc2[nH]cc(C(=O)CNc3nc(C)cs3)c2c1" ?
10.3 µM

What AC40 value was documented for this compound, "CCCC(=O)Nc1sc2c(c1C#N)CCCC2" ?
19 µM

What AC40 value was documented for this compound, "COc1cccc(NC(=O)c2ccccc2Br)c1" ?
4.25 µM

What AC40 value was documented for this compound, CC(Cc1cccs1)NC(=O)c1cccc(Cl)c1 (stereo unspecified) ?
2.76 µM

What AC40 value was documented for this compound, "COc1ccc([C@@H](C)NC(=O)c2ccc3oc(C(C)C)nc3c2)cc1" ?
9.81 µM

What AC40 value was documented for this compound, "Nc1ccc(C#Cc2ccc3c(=O)c4ccccc4oc3c2)cc1" ?
3.64 µM

What AC40 value was documented for this compound, "CC(C)c1ccc(CNNC(=O)c2ccccc2)cc1" ?
2.18 µM

What AC40 value was documented for this compound, "Cc1nn(Cc2c(F)c(F)c(F)c(F)c2F)c(C)c1NC(=O)c1ccc(COc2cc(Cl)ccc2Cl)cc1" ?
3.23 µM

What AC40 value was documented for this compound, "Cc1ccc(C(=O)Nc2cccc(O)c2)cc1S(=O)(=O)N1CCCCCC1" ?
14.5 µM

What AC40 value was documented for this compound, "CC(C)CN1C(=O)c2ccc(C(=O)Nc3nccs3)cc2C1=O" ?
1.98 µM

What AC40 value was documented for this compound, "Cc1ccc(Cl)cc1-c1cc(C(=O)Nc2ccc(F)cc2)[nH]n1" ?
4.92 µM

What AC40 value was documented for this compound, "CN(C)S(=O)(=O)c1ccc2c(c1)/C(=C/c1cc3c([nH]1)CCCC3)C(=O)N2" ?
3.25 µM

What AC40 value was documented for this compound, "Cc1cccc(NC(=O)c2c(O)c3ccccc3[nH]c2=O)c1" ?
0.371 µM

What AC40 value was documented for this compound, "Cc1cc(N2CCOCC2)nc2ccc(NC(=O)CCC(=O)N3CCN(c4ccccc4F)CC3)cc12" ?
4.59 µM

What AC40 value was documented for this compound, "Nc1cc2c(cc1Br)-c1ccccc1C2=NO" ?
9.76 µM

What AC40 value was documented for this compound, "CO[C@H]1CN(C)C(=O)c2ccc(NC(=O)Nc3ccc4c(c3)OCO4)cc2OC[C@@H](C)NC[C@@H]1C" ?
2.76 µM

What AC40 value was documented for this compound, "COc1ccc(-c2ccc(OC)cc2)cc1" ?
4.64 µM

What AC40 value was documented for this compound, "COc1ccc(C(=O)NCCS(=O)(=O)NCCc2ccccc2)cc1" ?
0.726 µM

What AC40 value was documented for this compound, "O=C(CCc1nnc(CCc2c[nH]c3ccccc23)o1)NC1CCC1" ?
4.41 µM

What AC40 value was documented for this compound, "CCn1cnc2cc(NCc3ccccc3Cl)ccc21" ?
3.92 µM

What AC40 value was documented for this compound, "O=C(Nc1cccc2ccccc12)OCc1ccccc1" ?
3.96 µM

What AC40 value was documented for this compound, "CC(C)(C)C(=O)N1CCN(c2nc3ccc(Br)cc3s2)CC1" ?
1.53 µM

What AC40 value was documented for this compound, COc1cc(C2Nc3cc(Cl)c(S(N)(=O)=O)cc3S(=O)(=O)N2)ccc1OCc1ccccc1 (stereo unspecified) ?
3.48 µM

What AC40 value was documented for this compound, "Cc1sc2c(c1C)CN(C(C)(C)C)CN2C(=O)c1ccccc1" ?
1.37 µM

What AC40 value was documented for this compound, "COc1cc(/C=C/c2ccc(O)cc2)cc(OC)c1" ?
2.31 µM

What AC40 value was documented for this compound, "O=C(c1cc2c(s1)-c1ccccc1OC2)N1CCCC1" ?
1.71 µM

What AC40 value was documented for this compound, "O=C(Nc1ccc(N2CCCC2)cc1)c1cccc(Cl)c1Cl" ?
28.2 µM

What AC40 value was documented for this compound, "c1ccc(-c2ccc(-c3ccccc3)[nH]2)cc1" ?
1.44 µM

What AC40 value was documented for this compound, "COc1ccc2c(=O)c(-c3ccc(OC)c(OC)c3)coc2c1" ?
2.69 µM

What AC40 value was documented for this compound, "CC(C)c1ccc(CNc2ncccn2)cc1" ?
2.82 µM

What AC40 value was documented for this compound, "CSc1ccccc1NC(=O)c1cc(C(C)C)on1" ?
3.11 µM

What AC40 value was documented for this compound, COc1ccc(/C=C2/SC(=O)N(CCNC(=O)CC(NC(C)=O)c3ccccc3)C2=O)cc1 (stereo unspecified) ?
10.2 µM

What AC40 value was documented for this compound, "Cc1nc(Nc2ccccc2)sc1C(=O)c1ccc(F)cc1" ?
3.93 µM

What AC40 value was documented for this compound, O=C(c1cc2ccccc2oc1=O)N(Cc1cccs1)C1CCS(=O)(=O)C1 (stereo unspecified) ?
3.94 µM

What AC40 value was documented for this compound, "COc1ccc(F)cc1-c1cc(C(=O)Nc2cccnc2)[nH]n1" ?
3.06 µM

What AC40 value was documented for this compound, "COc1ccc2cc(C(=O)N(C)CC(=O)Nc3ccccc3Br)ccc2c1" ?
5.86 µM

What AC40 value was documented for this compound, "Clc1ccc(-c2nc3ccc(Cl)cn3c2Cc2ccsc2)cc1" ?
9.87 µM

What AC40 value was documented for this compound, O=C(CC(NC(=O)OCc1ccccc1)c1nn[nH]n1)OCc1ccccc1 (stereo unspecified) ?
2.6 µM

What AC40 value was documented for this compound, "COCOc1ccc(-c2cc(=O)c3c(O)cc(OCOC)cc3o2)cc1" ?
8.4 µM

What AC40 value was documented for this compound, "Cc1ccc(NC(=O)NC(=O)N(c2ccccc2)S(C)(=O)=O)cc1" ?
7.14 µM
